# Target system: Microphthalmia-associated transcription factor (Homo sapiens)
# Run description: MITF inhibitors, primary screen, biochemical, AlphaScreen, human (AID 1259374);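 further: 0% = vehicle wells with protein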
# Run parameters: AlphaScreen MITF homodimerization, bead proximity signal; at 2.6 µM; hits give high values
Out of some 650,000 compounds screened, about 5,900 (0.91%) were called active. This excerpt belongs to a sample that is enriched for actives.
Reported values of inhibition for individual entries
Give a bare numeral; the unit % is implied.

// below: answered compounds
CCOC(=O)C1CCN(Cc2ccccc2F)CC1: 26.1
COc1cc(OC)c(OC)cc1CN1CCN(C(=O)c2cccs2)CC1: 35.6
c1ccc(CCc2nnc3n2CCN(Cc2cccnc2)CC3)cc1: 4.85
COc1c(S(=O)(=O)N2CCN(Cc3ccccc3)CC2)ccc(Cl)c1Cl: -5.29
COc1ccc(C(=O)N2CCc3c(nc(C)[nH]c3=O)C2)cc1Cn1nc(C)cc1C: 4.03

[ask] Quote inhibition reported for Brc1cccc(CN2CCN(Cc3cccnc3)CC2)c1 please.
[reply] 77.7

[ask] Quote inhibition reported for CC(=O)Nc1cc(C(=O)NCCN2CCOCC2)cc(-n2ncc3cc(Nc4c(Cl)cccc4Cl)ccc32)c1 please.
[reply] -3

[ask] Quote inhibition reported for Cc1ccc(OCCCCNC(C)(C)C)cc1C please.
[reply] 1.35

* * *

# Target system: Microphthalmia-associated transcription factor (Homo sapiens)
# Run description: MITF inhibitors, primary screen, biochemical, AlphaScreen, human (AID 1259374);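 further: 0% = vehicle wells with protein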
# Run parameters: AlphaScreen MITF homodimerization, bead proximity signal; at 2.6 µM; hits give high values
Hit rate of the full screen: of about 650,000 compounds, about 5,900 (0.91%) were called active. The sample holds actives, similar compounds and a random draw of the others, so the mix is not that of the screen.
Measured property: inhibition (%)
Give a bare numeral; the unit % is implied.

// below: answered molecules
COc1cc(Br)cc(CN2CCCN(C)CC2)c1O: 7.81
COc1ccc(C(=O)N/N=C/c2ccc(O)c3ncccc23)cc1: 100
N#CC1=C(N)N(c2sc3c(c2C#N)CCCC3)C2=C(C(=O)CCC2)C1c1ccc(Br)s1 (stereo not given): 13.4
COc1cc(CN2CCC(O)CC2)ccc1OCc1ccccc1: -15

Now take the following molecule into account.
[ask] Quote inhibition reported for CCc1nnc(NC(=O)CSc2nnc(-c3ccccn3)n2-c2ccccc2C)s1 please.
[reply] 1.39

Measured values drawn from PubChem BioAssay AID1259374 for this set.
